tested on: Platelet aggregation induced with PAF; assay: Test 1: inhibition of PAF-induced platelet aggregation in platelet rich plasma; format: cell-based, Japanese white rabbit; conditions: Oryctolagus cuniculus, rabbit PRP, 5×10^5 cells/mm^3, final concentration of PAF usually 20 nM
Measured attribute: IC50 (µg/mL)

Reference set (2 entries):
| Molecule | Measured attribute | Test value |
| --- | --- | --- |
| CSCC[C@H]1NC(=O)[C@@H](Cc2cn(C)c3ccccc23)NC1=O [Example 1] | IC50 | 0.71 |
| CSCC[C@@H]1C(=O)N(C)[C@H](Cc2cn(C)c3ccccc23)C(=O)N1C [Example 4] | IC50 | 0.84 |

P. C[C@H](c1cn(C)c2ccccc12)[C@H]1NC(=O)[C@@H](Cc2ccccn2)NC1=O [Example 18]
Q. CSCC[C@H]1NC(=O)[C@@H](Cc2c3ccccc3cc3ccccc23)NC1=O [Test compound 11]
R. CCC[C@H]1NC(=O)[C@@H](Cc2cn(C)c3ccccc23)NC1=O [Test compound 14]
S. CSCC[C@H]1NC(=O)[C@@H]([C@H](C)c2cccc3ccccc23)NC1=O [Test compound 9]
Ascending sort, IC50. List labels; respect the requested ordering.
S, P, Q, R

Taken from patent US4806538A.
